- target_system: T1, Spindly_(1–142) (human, UniProt Q96EA4-1 1-142)
- T1 chain: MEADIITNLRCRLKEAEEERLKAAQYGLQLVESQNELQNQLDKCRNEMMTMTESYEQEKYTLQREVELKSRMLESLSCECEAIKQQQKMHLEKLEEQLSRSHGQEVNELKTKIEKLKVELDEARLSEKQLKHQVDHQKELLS
- procedure_details: ITC; second site (KD2)
endpoint_name: Kd (µM)
One number for each entry, in µM.

Q: Any idea what Kd was measured for NMKAGATSEGVLANFFNSLLSKKTGS [LIC1_(433–458)] ?
Ans: 7.6
